assay: Apparent permeability of compound across apical to basolateral side in human Caco-2 cells at 10 uM incubated for 5 to 95 mins by LC-MS/MS analysis; format: ADME, cell-based; conditions: time 5-95 min
Measurement Name: Papp A→B at 10 µM (×10⁻⁶ cm/s)

COc1cc(N2CCC(N3CCN(C)CC3)CC2)c(C)cc1Nc1ncc(Br)c(Nc2ccc(C)cc2P(C)(C)=O)n1 :: 13.2

----------
experiment: Tmax in male Cynomolgus monkey plasma at 3 mg/kg, po measured after 96 hrs LC-MS/MS analysis; format: ADME, organism-based, Macaca fascicularis
Measurement Name: Tmax (h)

COc1cc(N2CCC(N3CCN(C)CC3)CC2)c(C)cc1Nc1ncc(Br)c(Nc2ccc(C)cc2P(C)(C)=O)n1 :: 3.67
